System: 699152-130-R-J1-PDC complex spheroid viability
Assay Text: Anticancer human tumor 699152-130-R-J1-PDC patient-derived pancreatic carcinoma cell line growth inhibition [POLQ]
Condition Notes: curve of first compound; second compound 1 µM
Parameter: IC50 (µM)
Form entry: value (µM) — number only.

// query IC50 value for entry COc1ccc([C@@H](O)c2cc(-c3ncnc4cc(N5CCOCC5)ccc34)c(F)cc2Cl)nn1 + Nc1ccc(C#CCN(C(=O)Cc2ncc(C(F)(F)F)cc2C(F)(F)F)c2ccc(F)cc2)nn1
3.39

Input CC1COCCN1c1cc(-c2ccnn2C)c2ccnc(-c3ccn[nH]3)c2n1 (stereo not given) + Nc1ccc(C#CCN(C(=O)Cc2ncc(C(F)(F)F)cc2C(F)(F)F)c2ccc(F)cc2)nn1
6.83

* * *

System: 699152-130-R-J1-PDC complex spheroid viability
Assay Text: Anticancer human tumor 699152-130-R-J1-PDC cell line growth inhibition [POLQ];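 also: spheroids exposed to agents for 7 days before viability reading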;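 as to viability, T/C: percent of DMSO vehicle control viability so 100% = vehicle and 0% = no viable signal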
Condition Notes: second compound 0.1 µM; first compound 1 µM; stronger effect = lower value
The reader will find reported viability, T/C values listed item by item below.
Form entry: value (%) — number only.

CCc1cc2c(N3CCc4c(cc(Cn5ccnc5)cc4-c4cn(C)nc4C(F)(F)F)C3=O)cc(C)nc2c(OC)n1 + Nc1ccc(C#CCN(C(=O)Cc2ncc(C(F)(F)F)cc2C(F)(F)F)c2ccc(F)cc2)nn1	93.4
CC1COCCN1c1cc(C2(S(C)(=N)=O)CC2)nc(-c2ccnc3[nH]ccc23)n1 (stereo not given) + COC1C(OC(N)=O)C(O)C(Oc2ccc3c(O)c(NC(=O)c4ccc(O)c(CC=C(C)C)c4)c(=O)oc3c2C)OC1(C)C	101
O=C(Nc1ccc(O)c(NS(=O)(=O)c2ccc(F)cc2)c1)c1ccc(-c2ccccc2)cc1 + Cc1cccc(N(C)C(=O)C2C(O)CCN2c2nc(C)cc(C(F)(F)F)c2C#N)c1	106
C=CCn1c(=O)c2cnc(Nc3ccc(N4CCN(C)CC4)cc3)nc2n1-c1cccc(C(C)(C)O)n1 + Nc1ccc(C#CCN(C(=O)Cc2ncc(C(F)(F)F)cc2C(F)(F)F)c2ccc(F)cc2)nn1	68.8

Kindly review the next molecule as well.
// query viability, T/C value for entry Nc1ccn(C2OC(CO)C(O)C2(F)F)c(=O)n1 (stereo not given) + Nc1ccc(C#CCN(C(=O)Cc2ncc(C(F)(F)F)cc2C(F)(F)F)c2ccc(F)cc2)nn1
46

* * *

System: 699152-130-R-J1-PDC complex spheroid viability
Assay Text: Anticancer human tumor 699152-130-R-J1-PDC cell line growth inhibition [POLQ];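 also: spheroids exposed to agents for 7 days before viability reading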;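 as to viability, T/C: percent of DMSO vehicle control viability so 100% = vehicle and 0% = no viable signal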
Condition Notes: second compound 0.0316 µM; first compound 0.000316 µM; stronger effect = lower value
Parameter: viability, T/C

CC[C@@]1(O)C(=O)OCc2c1cc1n(c2=O)Cc2cc3c(CN(C)C)c(O)ccc3nc2-1 + COC1C(OC(N)=O)C(O)C(Oc2ccc3c(O)c(NC(=O)c4ccc(O)c(CC=C(C)C)c4)c(=O)oc3c2C)OC1(C)C	116%

// query viability, T/C value for entry Cn1ncnc1[C@H]1c2n[nH]c(=O)c3cc(F)cc(c23)N[C@@H]1c1ccc(F)cc1 + Cc1cccc(N(C)C(=O)C2C(O)CCN2c2nc(C)cc(C(F)(F)F)c2C#N)c1
103%

Input CC[C@@]1(O)C(=O)OCc2c1cc1n(c2=O)Cc2cc3c(CN(C)C)c(O)ccc3nc2-1 + Nc1ccc(C#CCN(C(=O)Cc2ncc(C(F)(F)F)cc2C(F)(F)F)c2ccc(F)cc2)nn1
109%
